meta.source: paper PMC10298982

Assay: Protein binding in human plasma (ultracentrifugation)
Type: in vitro ADME
Settings: pH 7.4, Human plasma (K2EDTA), 2.5 h at 37 °C, read-out: Fu (Unbound Fraction) Mean ± SD
Ends that are not written are not given here.
TEST_READOUT: fraction unbound at 2.5 h, 2 µM

>>> result("LRKLRKRLLRLVGRQLEEFL [HM-10/10, LRKLRKRLLRLVGRQLEEFL]")
0.203

====

Assay: in vitro
Details: CD-1, mouse, plasma, pH 7.4, Fu (Unbound Fraction) Mean ± SD
TEST_READOUT: fraction unbound at 2.5 h, 2 µM

>>> quantitative_result("CC(=O)CC(c1ccccc1)c1c(O)c2ccccc2oc1=O (stereo not shown) [Warfarin]")
0.0398

====

Test: in vitro
Conditions: cynomolgus monkey, plasma, pH 7.4
Ends that are not written are not given here.
TEST_READOUT: half-life at 2 µM (min)

>>> quantitative_result("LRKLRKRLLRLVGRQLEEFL [HM-10/10, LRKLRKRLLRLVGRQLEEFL]")
52.7

====

Assay: Protein binding in Sprague-Dawley rat plasma (ultracentrifugation)
Conditions: Sprague-Dawley, rat, plasma (K2EDTA), pH 7.4
Ends that are not written are not given here.
TEST_READOUT: fraction unbound at 2.5 h, 2 µM

>>> quantitative_result("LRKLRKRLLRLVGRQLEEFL [HM-10/10, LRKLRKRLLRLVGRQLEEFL]")
0.672

====

Assay: Protein binding in beagle dog plasma (ultracentrifugation)
Details: beagle, dog, plasma (K2EDTA), pH 7.4
Ends that are not written are not given here.
TEST_READOUT: remaining at 2.5 h, 2 µM

>>> result("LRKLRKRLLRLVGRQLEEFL [HM-10/10, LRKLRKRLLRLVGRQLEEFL]")
"29.2%"

====

Assay: in vitro
Settings: CD-1, mouse, plasma, pH 7.4
TEST_READOUT: remaining at 2.5 h, 2 µM (%)

>>> quantitative_result("CC(=O)CC(c1ccccc1)c1c(O)c2ccccc2oc1=O (stereo not shown) [Warfarin]")
108

====

Test: in vitro
Conditions: Sprague-Dawley, rat, plasma, pH 7.4
TEST_READOUT: remaining at 2.5 h, 2 µM (%)

>>> quantitative_result("CC(=O)CC(c1ccccc1)c1c(O)c2ccccc2oc1=O (stereo not shown)")
105

====

Experiment: Stability in potassium phosphate buffers of pH 1.3, 5.5 and 7.4
Type: physicochemical
Settings: potassium phosphate buffer, Slightly Acidic (pH 5.5)
Ends that are not written are not given here.
TEST_READOUT: half-life at 2 µM

>>> result("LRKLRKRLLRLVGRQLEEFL [HM-10/10, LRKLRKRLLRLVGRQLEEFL]")
"> 2 h"

====

Assay: Metabolic stability in beagle dog liver microsomes
Type: in vitro ADME
Conditions: dog, microsomes, Beagle dog liver microsomes 0.5 mg protein/mL; 2 μM; read-out: CLint (mL/min/kg)
Ends that are not written are not given here.
TEST_READOUT: CLint scaled (mL/min/kg)

>>> quantitative_result("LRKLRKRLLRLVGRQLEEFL [HM-10/10, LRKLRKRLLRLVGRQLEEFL]")
47.2

====

Experiment: in vitro
Details: CD-1, mouse, plasma, pH 7.4
Ends that are not written are not given here.
TEST_READOUT: remaining at 2 h, 2 µM (%)

>>> quantitative_result("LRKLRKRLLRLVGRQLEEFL [HM-10/10, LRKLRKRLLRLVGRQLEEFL]")
23.9
